FYI, the data here is from PubChem BioAssay (NCI).

- Test system: IGROV1 ovarian
- method-summary: NCI tumour cell line growth inhibition, 48 h
property: TGI

>  <compound>
NC1=NN(c2ccccc2)C(=O)C1/C(=N\NC(=O)c1cc2ccccc2cc1O)C(=O)Nc1nc([N+](=O)[O-])cs1 (centres undefined)

>  <property>
TGI

>  <endpoint-value>
94.4 µM

$$$$
>  <compound>
CCCCNC(=O)OCC(COc1ccccc1OC)OC(=O)NCCCC (centres undefined)

>  <property>
TGI

>  <endpoint-value>
> 100 µM

$$$$
>  <compound>
Clc1ccccc1-c1nc(-c2ccncc2)no1

>  <property>
TGI

>  <endpoint-value>
> 100 µM

$$$$
>  <compound>
CCCC(=O)OCC1(CO)C/C(=C/CC(C(C)C)C(C)C)C(=O)O1 (centres undefined)

>  <property>
TGI

>  <endpoint-value>
> 100 µM

$$$$
>  <compound>
O=C(c1ccccn1)c1nc(-c2ccc(Cl)c(Cl)c2)nc2ccc(Cl)cc12

>  <property>
TGI

>  <endpoint-value>
> 100 µM

$$$$
>  <compound>
CSC1=Nc2c(c(C)c(-c3ccccc3)n2CCCCl)C2=NC(=O)CN12

>  <property>
TGI

>  <endpoint-value>
21.1 µM

$$$$
>  <compound>
CC1=CSC(O)(c2ccc(Cl)cc2)c2noc(=O)n21 (centres undefined)

>  <property>
TGI

>  <endpoint-value>
> 100 µM

$$$$
>  <compound>
COc1ccc(C2=CC(c3ccc(Oc4ccnc5cc(Cl)ccc45)c(OC)c3)c3c(nc(OC)[nH]c3=O)N2)cc1 (centres undefined)

>  <property>
TGI

>  <endpoint-value>
> 100 µM

$$$$
>  <compound>
Cc1ccc(P(c2ccc(C)cc2)c2ccc(C)cc2)cc1

>  <property>
TGI

>  <endpoint-value>
53.6 µM

$$$$
